Test system: 429239-143-T-J1-PDC complex spheroid viability;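 also: luminescence signal used as surrogate measure of viable cells; spheroids exposed to compounds for seven days before readout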
procedure.details: Anticancer human tumor 429239-143-T-J1-PDC patient-derived small cell lung carcinoma cell line growth inhibition [POLQ]
measurement.conditions: curve of first compound; second compound 0.316 µM
Please provide measured IC50 for the entries that follow.
Numbers only, in nM.

Asked: What is its IC50 for 429239-143-T-J1-PDC complex spheroid viability? Entry: COc1cccc(OCCCN)c1-c1cc(Nc2cnc(C#N)cn2)n[nH]1 + Nc1ccc(C#CCN(C(=O)Cc2ncc(C(F)(F)F)cc2C(F)(F)F)c2ccc(F)cc2)nn1
Given back: 219

Asked: What is its IC50 for 429239-143-T-J1-PDC complex spheroid viability? Entry: C=CCn1c(=O)c2cnc(Nc3ccc(N4CCN(C)CC4)cc3)nc2n1-c1cccc(C(C)(C)O)n1 + COC1C(OC(N)=O)C(O)C(Oc2ccc3c(O)c(NC(=O)c4ccc(O)c(CC=C(C)C)c4)c(=O)oc3c2C)OC1(C)C
Given back: 591

Asked: What is its IC50 for 429239-143-T-J1-PDC complex spheroid viability? Entry: COc1cc(C2c3cc4c(cc3C(OC3OC5COC(C)OC5C(O)C3O)C3COC(=O)C23)OCO4)cc(OC)c1O (stereo unspecified) + Nc1ccc(C#CCN(C(=O)Cc2ncc(C(F)(F)F)cc2C(F)(F)F)c2ccc(F)cc2)nn1
Given back: 514

With those in mind, consider the next molecule.
Asked: What is its IC50 for 429239-143-T-J1-PDC complex spheroid viability? Entry: O=c1[nH]cc(F)c(=O)[nH]1 + COC1C(OC(N)=O)C(O)C(Oc2ccc3c(O)c(NC(=O)c4ccc(O)c(CC=C(C)C)c4)c(=O)oc3c2C)OC1(C)C
Given back: 6050
